Record form. Attribute: ETOH. Fill in for each entry.
tested on: rumen inoculum; assay: Rumen in vitro model; set-up: species or system steer; conditions: 5 ppm
One number for each entry, in % OF CONTROL.

Example entries begin here.
CN[C@H](CC(C)C)C(=O)N[C@H]1C(=O)N[C@@H](CC(N)=O)C(=O)N[C@H]2C(=O)N[C@H]3C(=O)N[C@H](C(=O)N[C@H](C(=O)O)c4cc(O)cc(O)c4-c4cc3ccc4O)[C@H](O)c3ccc(c(Cl)c3)Oc3cc2cc(c3O[C@@H]2O[C@H](CO)[C@@H](O)[C@H](O)[C@H]2O[C@H]2C[C@](C)(N)[C@H](O)[C@H](C)O2)Oc2ccc(cc2Cl)[C@H]1O [Vancomycin]	0
CN[C@H]1C(=O)N[C@H]2C(=O)N[C@H](C(=O)N[C@H]3C(=O)N[C@H]4C(=O)N[C@H](C(=O)N[C@H](C(=O)O)c5cc(O)cc(O[C@H]6O[C@H](CO)[C@@H](O)[C@H](O)[C@@H]6O)c5-c5cc4ccc5O)[C@H](O)c4cc(Cl)c(c(Cl)c4)Oc4cc3cc(c4O[C@@H]3O[C@H](C(=O)O)[C@@H](O)[C@H](O)[C@H]3NC(=O)CCCCCCCCC(C)C)Oc3ccc(cc3Cl)[C@H]2O)c2cc(cc(O)c2Cl)Oc2cc1ccc2O	0

// moving on: another record for ETOH
Task item: State the recorded ETOH for this entry: CN[C@H]1C(=O)N[C@H]2C(=O)N[C@H](C(=O)N[C@H]3C(=O)N[C@H]4C(=O)N[C@H](C(=O)N[C@H](C(=O)O)c5cc(O)cc(O[C@H]6O[C@H](CO)[C@@H](O)[C@H](O)[C@@H]6O)c5-c5cc4ccc5O)[C@H](O)c4cc(Cl)c(c(Cl)c4)Oc4cc3cc(c4O[C@@H]3O[C@H](C(=O)O)[C@@H](O)[C@H](O)[C@H]3NC(=O)CCCCCCCC(C)C)Oc3ccc(cc3Cl)[C@H]2O)c2cc(cc(O)c2Cl)Oc2cc1ccc2O [AAD 216B]
Reply: 0

* * *

system: rumen inoculum; assay: Rumen in vitro model; parameters: species or system steer; conditions: 5 ppm
quantityMeasured: AMO (% OF CONTROL)
One number for each entry, in % OF CONTROL.

Task item: State the recorded AMO for this entry: CC[C@@]1([C@H]2O[C@H]([C@H]3O[C@@](O)(CO)[C@H](C)C[C@@H]3C)C[C@H]2C)CC[C@H]([C@@]2(C)CC[C@]3(C[C@H](O)[C@@H](C)[C@@H]([C@H](C)[C@H](OC)[C@@H](C)C(=O)O)O3)O2)O1 [Monensin Sodium]
Reply: 0

* * *

Record form. Attribute: PRO. Fill in for each entry.
tested on: rumen inoculum; assay: Rumen in vitro model; parameters: species or system steer; conditions: 0.5 ppm
Answers are plain numbers, in % OF CONTROL.

CN[C@H]1C(=O)N[C@H]2C(=O)N[C@H](C(=O)N[C@H]3C(=O)N[C@H]4C(=O)N[C@H](C(=O)N[C@H](C(=O)O)c5cc(O)cc(O[C@H]6O[C@H](CO)[C@@H](O)[C@H](O)[C@@H]6O)c5-c5cc4ccc5O)[C@H](O)c4cc(Cl)c(c(Cl)c4)Oc4cc3cc(c4O[C@@H]3O[C@H](C(=O)O)[C@@H](O)[C@H](O)[C@H]3NC(=O)CCCCCCCC(C)C)Oc3ccc(cc3Cl)[C@H]2O)c2cc(cc(O)c2Cl)Oc2cc1ccc2O [AAD 216B]	102

Task item: State the recorded PRO for this entry: CN[C@H](CC(C)C)C(=O)N[C@H]1C(=O)N[C@@H](CC(N)=O)C(=O)N[C@H]2C(=O)N[C@H]3C(=O)N[C@H](C(=O)N[C@H](C(=O)O)c4cc(O)cc(O)c4-c4cc3ccc4O)[C@H](O)c3ccc(c(Cl)c3)Oc3cc2cc(c3O[C@@H]2O[C@H](CO)[C@@H](O)[C@H](O)[C@H]2O[C@H]2C[C@](C)(N)[C@H](O)[C@H](C)O2)Oc2ccc(cc2Cl)[C@H]1O [Vancomycin]
Reply: 103

* * *

tested on: rumen inoculum; assay: Rumen in vitro model; design: species or system steer; details: 0.5 ppm
quantityMeasured: AMO (% OF CONTROL)
Answers are plain numbers, in % OF CONTROL.

Each molecule below has a reported value. Please supply its AMO.
1. CN[C@H]1C(=O)N[C@H]2C(=O)N[C@H](C(=O)N[C@H]3C(=O)N[C@H]4C(=O)N[C@H](C(=O)N[C@H](C(=O)O)c5cc(O)cc(O[C@H]6O[C@H](CO)[C@@H](O)[C@H](O)[C@@H]6O)c5-c5cc4ccc5O)[C@H](O)c4cc(Cl)c(c(Cl)c4)Oc4cc3cc(c4O[C@@H]3O[C@H](C(=O)O)[C@@H](O)[C@H](O)[C@H]3NC(=O)CCCCCCCC(C)C)Oc3ccc(cc3Cl)[C@H]2O)c2cc(cc(O)c2Cl)Oc2cc1ccc2O [AAD 216B]
2. CC[C@@]1([C@H]2O[C@H]([C@H]3O[C@@](O)(CO)[C@H](C)C[C@@H]3C)C[C@H]2C)CC[C@H]([C@@]2(C)CC[C@]3(C[C@H](O)[C@@H](C)[C@@H]([C@H](C)[C@H](OC)[C@@H](C)C(=O)O)O3)O2)O1 [Monensin Sodium]

Reply:
0
0

* * *

test system: rumen inoculum; experiment: Rumen in vitro model; design: species or system steer; conditions: 50 ppm
quantityMeasured: ACE

Task item: State the recorded ACE for this entry: CN[C@H](CC(C)C)C(=O)N[C@H]1C(=O)N[C@@H](CC(N)=O)C(=O)N[C@H]2C(=O)N[C@H]3C(=O)N[C@H](C(=O)N[C@H](C(=O)O)c4cc(O)cc(O)c4-c4cc3ccc4O)[C@H](O)c3ccc(c(Cl)c3)Oc3cc2cc(c3O[C@@H]2O[C@H](CO)[C@@H](O)[C@H](O)[C@H]2O[C@H]2C[C@](C)(N)[C@H](O)[C@H](C)O2)Oc2ccc(cc2Cl)[C@H]1O
Reply: 87% OF CONTROL
